target: human GLP-1 receptor (human, UniProt P43220 24-463); assay: cell-based or functional assay
Positions of bridges follow the written chain, without caps; N, C: chain ends. Non-standard residues stand in square brackets, D forms with d. No end group written: not given here. *: point of attachment. Acetyl(2-(4-imidazolyl)) = O=C(Cc1c[nH]cn1)*; Aib = CC(C)(N)C(=O)O
Values of In vitro activity (%) compared with native peptide: vs GLP-1 strictly less than 30% map to met, and values of at least 30% map to not met.

{"columns": ["Binder", "Answer Label"],
 "data": [
  ["H[Aib]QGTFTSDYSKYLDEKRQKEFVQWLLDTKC (bridge 16-20; not fully specified) [triple agonist of SEQ ID NO: 78]", "not met"],
  ["H[Aib]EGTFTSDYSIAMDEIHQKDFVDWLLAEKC (bridge 16-20; not fully specified) [triple agonist of SEQ ID NO: 80]", "met"],
  ["{Acetyl(2-(4-imidazolyl))}-[Aib]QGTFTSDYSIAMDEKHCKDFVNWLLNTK (bridge 15-19; not fully specified) [triple agonist of SEQ ID NO: 60]", "not met"]
]}

Next binder, please.
Ask | Could you please tell me whether In vitro activity (%) compared with native peptide: vs GLP-1 recorded for {Acetyl(2-(4-imidazolyl))}-[Aib]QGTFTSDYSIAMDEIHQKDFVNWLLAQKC (bridge 15-19; not fully specified) [triple agonist of SEQ ID NO: 92] is less than 30%?
Reply | met

Cited source for all entries: patent US20230372448A1
